System: UACC-62 melanoma
Experiment: NCI tumour cell line growth inhibition, 48 h

compound: O=C(CNC(=O)OCc1ccccc1)NCCCCC(NC(=O)OCc1ccccc1)C(=O)O (stereo not given)
TGI: > 100 µM

compound: CSC1=N/C(=C\c2cccs2)C(=O)N1CN1CCCCC1
TGI: > 100 µM

compound: COc1ccccc1NC(=O)CC(=O)n1nc(C)c(N=Nc2ccccc2F)c1C
TGI: > 100 µM

compound: N#Cc1c(NC(=O)c2cccs2)[n+]([O-])c2ccccc2[n+]1[O-]
TGI: > 100 µM

compound: C/C(=N\NC(N)=S)c1ccc(/C(C)=N/NC(N)=S)cc1
TGI: > 100 µM

* * *

Tested on: SK-OV-3 ovarian
Test: NCI tumour cell line growth inhibition, 48 h

compound: COc1ccc(C2=NNC(c3ccc(-c4ccc(OC)cc4[N+](=O)[O-])o3)C2)cc1 (stereo not drawn)
TGI: > 100 µM
--
compound: O=c1cc/c(=N\Nc2ccccc2)c(=O)/c1=N/Nc1ccccc1
TGI: > 50 µM
--
compound: O=S(=O)(CC1=NC2C=CC=CC2N=C1)NCc1ccccc1 (stereo not drawn)
TGI: > 100 µM

* * *

Below, each entry is listed with its recorded TGI.
Test system: SR leukemia
Test: NCI tumour cell line growth inhibition, 48 h
measured_property: TGI

compound: CCC(=O)N(c1ccccc1)C(C)CN1CCC(O)(c2ccccc2)CC1 (stereo not drawn)
obs_value: > 100 µM
//
compound: COc1ccc(CSCc2cc(OC)c(OC)c(OC)c2)cc1
obs_value: > 100 µM
//
compound: O=[N+]([O-])c1ccc(Cc2nc3ccccc3s2)cc1
obs_value: > 100 µM

* * *

Test system: UACC-62 melanoma
Assay: NCI tumour cell line growth inhibition, 48 h
Examples of compounds with documented TGI follow.
measured_property: TGI

compound: COc1ccc(NC2=C(Sc3nc(C)cc(C)n3)C(=O)N(Cc3ccccc3)C2=O)cc1Cl
obs_value: > 160 µM
//
compound: CCN(CC)CCC(=O)Nc1cccc2c1C(=O)c1c(c(O)c3ccccc3c1O)C2=O
obs_value: > 100 µM
//
compound: CCCCCCCCCC(=O)OCC1(CO)C/C(=C/CC(C(C)C)C(C)C)C(=O)O1 (stereo unspecified)
obs_value: > 100 µM
//
compound: O=C1CCC(c2nc3ccccc3o2)C(=O)N1 (stereo unspecified)
obs_value: > 100 µM
//
compound: O=C(CNC(=O)c1cccc2ccccc12)Nc1ccccc1Oc1cccc(O)c1
obs_value: > 25 µM
//
compound: CCCCCCN1C(=O)/C(=c2\sc3n(c2=O)C2C(NN=3)N(CC)C(=O)N2CC)c2ccccc21 (stereo unspecified)
obs_value: > 50 µM

* * *

System: TK-10 renal
Test: NCI tumour cell line growth inhibition, 48 h
*1 amine or outer side, *2 acyl side, *3 side chain or, on linkers, in order; H or OH if unused. Where a SMILES comes first, the peptide text is derived from it. Bridges are numbered along the chain shown (N, C = ends). [ ]: non-standard residue; d: D form. ξ: configuration not given here. X4 = CCC(C)C(N[*:1])C(O)CC(=O)O[C@H](C(=O)C(C)C(=O)[*:2])C(C)C; NMeY = CN[C@@H](Cc1ccc(O)cc1)C(=O)O; X9 = O=C([C@@H]1CC(O)CN1[*:1])[*:2]; ξNMeL = CNC(CC(C)C)C(=O)O; ξT = CC(O)C(N)C(=O)O

molecule: Cc1cccc2c3c(sc12)C(c1ccc(Cl)cc1)C(C#N)=C(/N=C/c1ccc(Cl)cc1)O3 (stereo not drawn)
measured_target: TK-10 renal
GI50: 12.2 µM
--
molecule: CN(C)c1cccc2[nH]c(-c3[nH]ncc3Nc3ccnc(N)n3)nc12
measured_target: TK-10 renal
GI50: 0.0399 µM
--
molecule: COc1ccc(NC2=C(Sc3nc(C)cc(C)n3)C(=O)N(Cc3ccccc3)C2=O)cc1Cl
measured_target: TK-10 renal
GI50: > 160 µM
--
molecule: CC(=O)OCC(=O)[C@@]1(O)[C@H](C)C[C@H]2[C@@H]3C=C(C)C4=Cc5c(cnn5-c5ccc(F)cc5)C[C@]4(C)[C@H]3[C@@H](O)C[C@@]21C
measured_target: TK-10 renal
GI50: 1.91 µM
--
molecule: COc1cc(/C=C2\CCCC3=C2NC(N)=NC3c2cc(OC)c(OC)c(OC)c2)cc(OC)c1OC (stereo not drawn)
measured_target: TK-10 renal
GI50: 3.24 µM
--
molecule: [N-]=[N+]=Nc1ncc(-c2ccc(C(F)(F)F)cc2)c(NC2CCCCCC2)n1
measured_target: TK-10 renal
GI50: > 10 µM
--
molecule: COC(=O)Nc1ccc2ccc3c(NC(=O)OC)ccc4ccc1c2c43 (tested in a mixture with another compound)
measured_target: TK-10 renal
GI50: 16.9 µM
--
molecule: CC[C@@]1(O)C(=O)NCc2c1cc1n(c2=O)Cc2cc3cc4c(cc3nc2-1)OCO4
measured_target: TK-10 renal
GI50: 69.9 µM
--
molecule: CCOC(=O)c1cc2c(cc1Cl)SC(N(c1ccc(F)cc1)S(=O)(=O)c1ccc(OC)cc1)=NS2(=O)=O
measured_target: TK-10 renal
GI50: 18.8 µM
--
molecule: COc1cc(C)cc2c1OC(c1ccccc1)CC2=O (stereo not drawn)
measured_target: TK-10 renal
GI50: > 100 µM
--
molecule: CCC(C)C1NC(=O)C(NC(=O)C(CC(C)C)N(C)C(=O)[C@@H]2CC(O)CN2)C(C)OC(=O)[C@H](Cc2ccc(OC)cc2)N(C)C(=O)[C@@H]2CCCN2C(=O)[C@H](CC(C)C)NC(=O)C(C)C(=O)[C@H](C(C)C)OC(=O)CC1O (stereo partly drawn) (H-[X9][ξNMeL][ξT][X4]LP[NMeY](Me); ester 3-C)
measured_target: TK-10 renal
GI50: 0.0873 µM
--
molecule: COc1cc2c(cc1OCCCCCOc1cc(-c3ccc(F)cc3)nc(C)n1)N=C[C@@H]1CCCN1C2=O
measured_target: TK-10 renal
GI50: > 49.9 µM
--
molecule: N#Cc1c(NC(=O)c2cccs2)[n+]([O-])c2ccccc2[n+]1[O-]
measured_target: TK-10 renal
GI50: > 100 µM
